# experiment.notes: Hydrophilicity, log D at pH 6.5
# Assay type: physicochemical
# experimental.setup: buffer
metric.name: logD

Entry CCCCCc1ccc(S(=O)(=O)NCCc2nc(-c3cccs3)[nH]c2-c2ccc(OC)cc2)cc1 : reported logD = ?
> 6

---

# test.target: Polyunsaturated fatty acid lipoxygenase ALOX15 (Oryctolagus cuniculus, UniProt P12530)
# Sequence (P12530 whole entry): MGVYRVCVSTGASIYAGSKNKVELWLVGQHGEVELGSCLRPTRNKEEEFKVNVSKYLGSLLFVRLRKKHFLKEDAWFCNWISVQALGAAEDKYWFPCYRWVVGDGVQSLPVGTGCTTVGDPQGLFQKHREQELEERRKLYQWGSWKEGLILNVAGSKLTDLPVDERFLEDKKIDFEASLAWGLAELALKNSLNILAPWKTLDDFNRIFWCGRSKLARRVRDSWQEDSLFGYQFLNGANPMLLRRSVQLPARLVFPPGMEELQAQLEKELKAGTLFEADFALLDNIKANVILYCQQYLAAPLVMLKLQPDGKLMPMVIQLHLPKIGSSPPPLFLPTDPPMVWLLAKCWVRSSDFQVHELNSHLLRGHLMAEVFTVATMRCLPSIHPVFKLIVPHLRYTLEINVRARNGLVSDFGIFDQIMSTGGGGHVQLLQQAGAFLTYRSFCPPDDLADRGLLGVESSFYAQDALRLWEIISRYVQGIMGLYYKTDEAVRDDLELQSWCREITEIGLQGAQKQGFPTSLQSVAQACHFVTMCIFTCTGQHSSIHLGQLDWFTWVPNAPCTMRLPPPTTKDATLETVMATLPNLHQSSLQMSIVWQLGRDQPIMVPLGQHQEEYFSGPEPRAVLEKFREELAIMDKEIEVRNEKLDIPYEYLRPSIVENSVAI
# experiment.notes: Inhibition of rabbit 15-lipoxygenase in presence of arachidonic acid
pIC50: −log10 of the molar value.
Classes based on pIC50: bin A (below 6), bin B (6 to below 7), bin C (7 or more)

Worked examples follow.
CCCCCc1ccc(S(=O)(=O)NCCc2nc(-c3ccccc3)[nH]c2-c2ccc(F)cc2)cc1 = bin B
CCCCCc1ccc(S(=O)(=O)NCCc2nc(-c3ccccc3)[nH]c2-c2ccc(OC)cc2)cc1 = bin C
CCCCCc1ccc(S(=O)(=O)NCCc2nc(-c3ccncc3)[nH]c2-c2ccc(OC)cc2)cc1 = bin A
COc1ccc(-c2[nH]c(-c3ccccc3)nc2CCNS(=O)(=O)N[C@H]2CCN(Cc3ccccc3)C2)cc1 = bin A
COc1ccc(-c2[nH]c(-c3ccccc3)nc2CCNS(=O)(=O)c2ccc(C)cc2)cc1 = bin A
COc1ccc(-c2[nH]c(-c3ccccc3)nc2CCNS(=O)(=O)N2CCN(c3ccc(Cl)c(Cl)c3)CC2)cc1 = bin B
CCCCCc1ccc(S(=O)(=O)NCCCc2nc(-c3cccs3)[nH]c2-c2ccc(OC)cc2)cc1 = bin B
CCCCCc1ccc(S(=O)(=O)NCCc2nc(-c3ccccc3)[nH]c2-c2ccc(C(F)(F)F)cc2)cc1 = bin B

Please indicate the class for COc1ccc(-c2[nH]c(-c3cccs3)nc2CCNS(=O)(=O)N(C)[C@@H]2CCN(Cc3ccccc3)C2)cc1 based on its pIC50.
bin B

Now the same for CCCCCc1ccc(S(=O)(=O)NCCc2nc(-c3cccs3)[nH]c2-c2ccc(OC)cc2)cc1
bin C

Now the same for CCCCCc1ccc(S(=O)(=O)NCCc2nc(-c3ccccc3)[nH]c2-c2cccc(OC)c2)cc1
bin B

Now the same for CCCCCc1ccc(S(=O)(=O)NCCc2nc(C(C)(C)C)[nH]c2-c2ccc(OC)cc2)cc1
bin A

Now the same for CCCCN1CCN(S(=O)(=O)NCCc2nc(-c3cccs3)[nH]c2-c2ccc(OC)cc2)CC1
bin C
